System: primary human T-cells
Assay: Proliferation assay after 5 days (CellTiter-Glo, CD3 stimulation; PBS counter screen)
Format: cell-based
Settings: Homo sapiens, T-cell, 120 h, primary human T-cells, CD3 stimulation, CellTiter-Glo after 5 days; EC50 of fitted sigmoidal curve; read-out: Tcell Proliferation CD3 EC50
Recorded log10 EC50 values for a group of molecules are listed next.
Values reflect log10 of reported EC50 (nM).

I'd like to know its log10 EC50. The molecule in question is CC(C#N)c1nnc(-c2cc3c(cc2F)S(=O)(=O)C[C@H](N)C(=O)N3Cc2ccc(Cl)cc2)o1 (some centres unmarked)
2.33

New cases:
Give the measured log10 EC50 of N[C@H]1CS(=O)(=O)c2ccc(-c3nnc(CC(F)(F)F)o3)cc2N(Cc2ccc(OC(F)(F)F)cc2)C1=O .
2.60

State the recorded log10 EC50 for this entry: CC(C)(C)c1nnc(-c2ccc3c(c2)N(Cc2ccc(Cl)cc2)C(=O)[C@@H](N)CS3(=O)=O)o1
2.56

Bench note: what log10 EC50 did CC(=O)N1CCC(c2nnc(-c3cc4c(cc3F)S(=O)(=O)C[C@H](N)C(=O)N4Cc3ccc(Cl)cc3)o2)CC1 show?
3.69

Entry under review: CC1(Nc2nnc(-c3cc4c(cc3F)S(=O)(=O)C[C@H](N)C(=O)N4Cc3ccc(Cl)cc3)o2)CC(F)(F)C1 . Reported log10 EC50?
2.60

# input molecule: N[C@H]1CS(=O)(=O)c2cc(F)c(-c3noc(C(F)C(F)(F)F)n3)cc2N(Cc2ccc(Cl)cc2)C1=O (some centres unmarked) ; wanted: its log10 EC50
2.84

Attribution: patent US20240368150A1
